Cited source for all entries: paper PMC6572184

Test system: L929 cell lines (mouse fibroblasts)
Assay: MTT reduction cytotoxicity assay
Assay type: cell-based
Conditions: 50 μg/mL, 24 h
measured-parameter: mean percentage of viable cells ± SD (%)

[
  {
    "compound": "CC1CC(=O)OC(c2ccccc2)C1I (mixture of isomers) [10b]",
    "measured-parameter": "mean percentage of viable cells ± SD",
    "u": "%",
    "recorded-number": 1
  },
  {
    "compound": "CC1CC(=O)OC(c2ccc(F)cc2)C1I (centres unmarked) [9c]",
    "measured-parameter": "mean percentage of viable cells ± SD",
    "u": "%",
    "recorded-number": 1
  },
  {
    "compound": "CC1CC(=O)OC(c2ccc(F)cc2)C1Br (mixture of isomers) [8c]",
    "measured-parameter": "mean percentage of viable cells ± SD",
    "u": "%",
    "recorded-number": 1
  },
  {
    "compound": "CC1CC(=O)OC(c2ccccc2)C1Cl (mixture of isomers)",
    "measured-parameter": "mean percentage of viable cells ± SD",
    "u": "%",
    "recorded-number": 2
  },
  {
    "compound": "CC1CC(=O)OC(c2ccc(F)cc2)C1Cl (centres unmarked) [5c]",
    "measured-parameter": "mean percentage of viable cells ± SD",
    "u": "%",
    "recorded-number": 2
  },
  {
    "compound": "CC1CC(=O)OC(c2cccc3ccccc23)C1Br (mixture of isomers)",
    "measured-parameter": "mean percentage of viable cells ± SD",
    "u": "%",
    "recorded-number": 1
  },
  {
    "compound": "CC1CC(=O)OC(c2ccc(F)cc2)C1Br (centres unmarked) [7c]",
    "measured-parameter": "mean percentage of viable cells ± SD",
    "u": "%",
    "recorded-number": 1
  },
  {
    "compound": "CC1CC(=O)OC(c2ccc(F)cc2)C1Cl (mixture of isomers) [6c]",
    "measured-parameter": "mean percentage of viable cells ± SD",
    "u": "%",
    "recorded-number": 2
  },
  {
    "compound": "CC1CC(=O)OC(c2cccc3ccccc23)C1Cl (mixture of isomers)",
    "measured-parameter": "mean percentage of viable cells ± SD",
    "u": "%",
    "recorded-number": 2
  },
  {
    "compound": "CC1CC(=O)OC(c2ccc(F)cc2)C1I (mixture of isomers) [10c]",
    "measured-parameter": "mean percentage of viable cells ± SD",
    "u": "%",
    "recorded-number": 2
  },
  {
    "compound": "CC1CC(=O)OC(c2ccccc2)C1Br (mixture of isomers)",
    "measured-parameter": "mean percentage of viable cells ± SD",
    "u": "%",
    "recorded-number": 1
  }
]

* * *

Tested on: AGS cell lines (human gastric adenocarcinoma)
Test: MTT reduction cytotoxicity assay
Assay type: cell-based
Settings: 50 μg/mL, 24 h
Reported mean percentage of viable cells ± SD by item:

[
  {
    "compound": "CC1CC(=O)OC(c2ccccc2)C1Cl (mixture of isomers) [6b]",
    "subject-of-test": "AGS cell lines (human gastric adenocarcinoma)",
    "mean percentage of viable cells ± SD [%]": 8
  },
  {
    "compound": "CC1CC(=O)OC(c2ccccc2)C1I (mixture of isomers) [10b]",
    "subject-of-test": "AGS cell lines (human gastric adenocarcinoma)",
    "mean percentage of viable cells ± SD [%]": 10
  },
  {
    "compound": "CC1CC(=O)OC(c2ccc(F)cc2)C1Br (mixture of isomers) [8c]",
    "subject-of-test": "AGS cell lines (human gastric adenocarcinoma)",
    "mean percentage of viable cells ± SD [%]": 10
  },
  {
    "compound": "CC1CC(=O)OC(c2ccc(F)cc2)C1I (centres unmarked) [9c]",
    "subject-of-test": "AGS cell lines (human gastric adenocarcinoma)",
    "mean percentage of viable cells ± SD [%]": 15
  },
  {
    "compound": "CC1CC(=O)OC(c2ccc(F)cc2)C1I (mixture of isomers) [10c]",
    "subject-of-test": "AGS cell lines (human gastric adenocarcinoma)",
    "mean percentage of viable cells ± SD [%]": 8
  },
  {
    "compound": "CC1CC(=O)OC(c2ccc(F)cc2)C1Br (centres unmarked) [7c]",
    "subject-of-test": "AGS cell lines (human gastric adenocarcinoma)",
    "mean percentage of viable cells ± SD [%]": 8
  },
  {
    "compound": "CC1CC(=O)OC(c2cccc3ccccc23)C1Cl (mixture of isomers) [6a]",
    "subject-of-test": "AGS cell lines (human gastric adenocarcinoma)",
    "mean percentage of viable cells ± SD [%]": 8
  },
  {
    "compound": "CC1CC(=O)OC(c2ccc(F)cc2)C1Cl (centres unmarked) [5c]",
    "subject-of-test": "AGS cell lines (human gastric adenocarcinoma)",
    "mean percentage of viable cells ± SD [%]": 10
  },
  {
    "compound": "CC1CC(=O)OC(c2ccccc2)C1Br (mixture of isomers) [8b]",
    "subject-of-test": "AGS cell lines (human gastric adenocarcinoma)",
    "mean percentage of viable cells ± SD [%]": 11
  },
  {
    "compound": "CC1CC(=O)OC(c2cccc3ccccc23)C1Br (mixture of isomers) [8a]",
    "subject-of-test": "AGS cell lines (human gastric adenocarcinoma)",
    "mean percentage of viable cells ± SD [%]": 9
  },
  {
    "compound": "CC1CC(=O)OC(c2ccc(F)cc2)C1Cl (mixture of isomers) [6c]",
    "subject-of-test": "AGS cell lines (human gastric adenocarcinoma)",
    "mean percentage of viable cells ± SD [%]": 6
  }
]

* * *

System: L929 cell lines (mouse fibroblasts)
Test: MTT reduction cytotoxicity assay
Assay type: cell-based
Conditions: 10 μg/mL, 24 h
This listing pairs compounds with measured mean percentage of viable cells ± SD.

[
  {
    "compound": "CC1CC(=O)OC(c2ccc(F)cc2)C1Cl (mixture of isomers) [6c]",
    "u": "%",
    "mean percentage of viable cells ± SD": 9
  },
  {
    "compound": "CC1CC(=O)OC(c2ccc(F)cc2)C1I (mixture of isomers) [10c]",
    "u": "%",
    "mean percentage of viable cells ± SD": 6
  },
  {
    "compound": "CC1CC(=O)OC(c2ccc(F)cc2)C1I (stereo not drawn) [9c]",
    "u": "%",
    "mean percentage of viable cells ± SD": 6
  },
  {
    "compound": "CC1CC(=O)OC(c2ccccc2)C1Br (mixture of isomers)",
    "u": "%",
    "mean percentage of viable cells ± SD": 8
  },
  {
    "compound": "CC1CC(=O)OC(c2ccc(F)cc2)C1Br (stereo not drawn) [7c]",
    "u": "%",
    "mean percentage of viable cells ± SD": 11
  },
  {
    "compound": "CC1CC(=O)OC(c2cccc3ccccc23)C1Br (mixture of isomers)",
    "u": "%",
    "mean percentage of viable cells ± SD": 7
  },
  {
    "compound": "CC1CC(=O)OC(c2ccccc2)C1I (mixture of isomers) [10b]",
    "u": "%",
    "mean percentage of viable cells ± SD": 7
  },
  {
    "compound": "CC1CC(=O)OC(c2ccc(F)cc2)C1Cl (stereo not drawn) [5c]",
    "u": "%",
    "mean percentage of viable cells ± SD": 10
  },
  {
    "compound": "CC1CC(=O)OC(c2ccccc2)C1Cl (stereo not drawn) [5b]",
    "u": "%",
    "mean percentage of viable cells ± SD": 7
  },
  {
    "compound": "CC1CC(=O)OC(c2ccc(F)cc2)C1Br (mixture of isomers) [8c]",
    "u": "%",
    "mean percentage of viable cells ± SD": 11
  },
  {
    "compound": "CC1CC(=O)OC(c2ccccc2)C1Cl (mixture of isomers) [6b]",
    "u": "%",
    "mean percentage of viable cells ± SD": 16
  },
  {
    "compound": "CC1CC(=O)OC(c2cccc3ccccc23)C1Cl (mixture of isomers)",
    "u": "%",
    "mean percentage of viable cells ± SD": 7
  }
]

* * *

Measured mean percentage of viable cells ± SD of individual entries
Tested on: L929 cell lines (mouse fibroblasts)
Assay: MTT reduction cytotoxicity assay
Format: cell-based
Settings: 0.1 μg/mL, 24 h
measured-parameter: mean percentage of viable cells ± SD (%)

[
  {
    "molecule": "CC1CC(=O)OC(c2ccc(F)cc2)C1Cl (mixture of isomers) [6c]",
    "measured-parameter": "mean percentage of viable cells ± SD",
    "u": "%",
    "recorded-number": 24
  },
  {
    "molecule": "CC1CC(=O)OC(c2ccc(F)cc2)C1I (mixture of isomers) [10c]",
    "measured-parameter": "mean percentage of viable cells ± SD",
    "u": "%",
    "recorded-number": 22
  },
  {
    "molecule": "CC1CC(=O)OC(c2cccc3ccccc23)C1Cl (mixture of isomers)",
    "measured-parameter": "mean percentage of viable cells ± SD",
    "u": "%",
    "recorded-number": 15
  },
  {
    "molecule": "CC1CC(=O)OC(c2ccc(F)cc2)C1Cl (centres unmarked) [5c]",
    "measured-parameter": "mean percentage of viable cells ± SD",
    "u": "%",
    "recorded-number": 26
  },
  {
    "molecule": "CC1CC(=O)OC(c2ccc(F)cc2)C1I (centres unmarked) [9c]",
    "measured-parameter": "mean percentage of viable cells ± SD",
    "u": "%",
    "recorded-number": 15
  },
  {
    "molecule": "CC1CC(=O)OC(c2cccc3ccccc23)C1Br (mixture of isomers)",
    "measured-parameter": "mean percentage of viable cells ± SD",
    "u": "%",
    "recorded-number": 23
  },
  {
    "molecule": "CC1CC(=O)OC(c2ccc(F)cc2)C1Br (mixture of isomers) [8c]",
    "measured-parameter": "mean percentage of viable cells ± SD",
    "u": "%",
    "recorded-number": 25
  },
  {
    "molecule": "CC1CC(=O)OC(c2ccc(F)cc2)C1Br (centres unmarked) [7c]",
    "measured-parameter": "mean percentage of viable cells ± SD",
    "u": "%",
    "recorded-number": 27
  },
  {
    "molecule": "CC1CC(=O)OC(c2ccccc2)C1Br (mixture of isomers)",
    "measured-parameter": "mean percentage of viable cells ± SD",
    "u": "%",
    "recorded-number": 24
  },
  {
    "molecule": "CC1CC(=O)OC(c2ccccc2)C1I (mixture of isomers) [10b]",
    "measured-parameter": "mean percentage of viable cells ± SD",
    "u": "%",
    "recorded-number": 25
  },
  {
    "molecule": "CC1CC(=O)OC(c2ccccc2)C1Cl (mixture of isomers)",
    "measured-parameter": "mean percentage of viable cells ± SD",
    "u": "%",
    "recorded-number": 32
  }
]
